Listing of entries alongside the reported Fold reduction in affinity to hexamer relative to PF74.
target: HIV-1 CA hexamer (Human immunodeficiency virus type 1 group M subtype B, UniProt P12493, A146C/E177C/M317A/W316A); construct: produced by assembly of recombinant CA containing four amino acid substitutions; made in house; assay: biochemical; type: binding; details: ITC
Your answer should be a plain number; it is taken to be in fold.

Would you please look over these solved cases?
CN(C(=O)[C@H](Cc1ccccc1)NC(=O)Cc1ccsc1)c1ccccc1 = 54
CN(C(=O)[C@H](Cc1ccccc1)NC(=O)Cc1ccoc1)c1ccccc1 = 94

Turning now to a further record.
[ask] Please indicate Fold reduction in affinity to hexamer relative to PF74 recorded for `CN(C(=O)[C@H](Cc1ccccc1)NC(=O)Cc1cc[nH]c1)c1ccccc1`
[reply] 46
